# Test system: MCF7
# assay-procedure: Cytotoxicity against human ER-positive MCF7 cells assessed as decrease in cell proliferation at 12.5 to 100 uM incubated for 24 hrs
# Assay type: functional, cell-based
# details: MCF7, 24 h

molecule	IC50 [µM]
CCOC(=O)c1cc(O)c(O)c(O)c1 [ETHYLGALLATE]	62.5
O=C(O)c1cc(O)c(O)c(O)c1	17.4
